# Tested on: A431 (human epidermal cancer cells, EGFR wild type)
# procedure.text: Tumor cell proliferation and growth inhibition analysis (Cell Titer-Glo, 72 h), A431
# Format: cell-based
# condition.label: A-431, 72 h exposure
Each entry below carries its recorded GI50.

Exam item: For the molecule C=CC(=O)Nc1cc(Nc2nccc(-c3cn(C)c4cccnc34)n2)c(OC)cc1N1CC2(CCCN2C)C1 [Example 17] , report GI50.
Marked response: 1300 nM

Exam item: Using the record for C=CC(=O)Nc1cc(Nc2nccc(-c3cn(C)c4cccnc34)n2)c(OC)cc1N1CC(N(C)C)C1 [Example 14] , state its measured GI50.
Marked response: ~3520 nM

Exam item: Return GI50 (reported value) for this molecule: C=CC(=O)Nc1cc(Nc2nccc(-c3cn(C)c4cc(C)sc34)n2)c(OC)cc1N(C)CCN(C)C [Example 30]
Marked response: 943 nM

Exam item: Output measured GI50 for this item: C=CC(=O)Nc1cc(Nc2cc(-n3nc(C)c4ccccc43)ccn2)c(OC)cc1N(C)CCN(C)C [Example 45]
Marked response: 798 nM

Exam item: Give a short answer stating reported GI50 for C=CC(=O)Nc1cc(Nc2nccc(-c3noc4ccccc34)n2)c(OC)cc1N1CC2(CCCN2C)C1 [Example 5] .
Marked response: 1220 nM

Exam item: Return reported GI50. Input molecule: C=CC(=O)Nc1cc(Nc2nccc(-c3nn(C)c4ccsc34)n2)c(OC(F)F)cc1N1CCN(C)CC1 [Example 26]
Marked response: 1130 nM

Exam item: In one line, give reported GI50 of the entry C=CC(=O)Nc1cc(Nc2ncnc(-c3cccc4ccn(C)c34)n2)c(OC)cc1N(C)CCN(C)C [Example 37] .
Marked response: 1320 nM

Exam item: Entry C=CC(=O)Nc1cc(Nc2nccc(-c3cn(C)c4cccnc34)n2)c(OC(F)F)cc1N1CCC[C@H]1CN(C)C [Example 22] needs its GI50 filled in; supply it.
Marked response: 724 nM

---

# Test system: A431 (human epidermal cancer cells, EGFR wild type)
# procedure.text: Tumor cell proliferation and growth inhibition analysis (Cell Titer-Glo, 72 h), A431
# Assay type: cell-based
# condition.label: A-431, 72 h exposure
Doc: threshold 300 nM (exclusive). Items with GI50 beneath it return rule met; others return rule not met.

1) C=CC(=O)Nc1cc(Nc2nccc(-c3nn(C)c4ccsc34)n2)c(OC(F)F)cc1N1CC(N(C)C)C1 [Example 27] = rule not met
2) C=CC(=O)Nc1cc(Nc2ncnc(-n3cnc4ccccc43)n2)c(OC)cc1N(C)CCN(C)C [Example 39] = rule met
3) C=CC(=O)Nc1cc(Nc2ncnc(-c3cccc4cc[nH]c34)n2)c(OC)cc1N1CC(N(C)C)C1 [Example 35] = rule not met
4) C=CC(=O)Nc1cc(Nc2nccc(-c3cn(C)c4cccnc34)n2)c(OC)cc1N1CCN(C)CC1 [Example 13] = rule not met

Exam item: Say whether its GI50 is strictly beneath 300 nM. Entry: C=CC(=O)Nc1cc(Nc2nccc(-c3nn(C)c4ccsc34)n2)c(OC(F)F)cc1N1CCC(N(C)C)CC1 [Example 28]
Marked response: rule not met

---

# System: A431 (human epidermal cancer cells, EGFR wild type)
# procedure.text: Tumor cell proliferation and growth inhibition analysis (Cell Titer-Glo, 72 h), A431
# Assay type: cell-based
# condition.label: A-431, 72 h exposure
Grouping by measured GI50 is done with the following cut points: lower segment = under 600 nM, middle segment = from 600 nM up to 1000 nM, upper segment = 1000 nM and over

1. C=CC(=O)Nc1cc(Nc2nccc(-c3noc4ccccc34)n2)c(OC)cc1N1CCC(N(C)C)CC1 = upper segment
2. C=CC(=O)Nc1cc(Nc2nccc(-c3noc4ccccc34)n2)c(OC)cc1N1CCN(C)CC1 = middle segment
3. C=CC(=O)Nc1cc(Nc2nccc(-c3noc4ccccc34)n2)c(OC(F)F)cc1N1CC2(CCCN2C)C1 = middle segment
4. C=CC(=O)Nc1cc(Nc2nccc(-c3nn(C)c4ccsc34)n2)c(OC(F)F)cc1N(C)CCN(C)C = lower segment
5. C=CC(=O)Nc1cc(Nc2ncnc(-c3cccc4cc[nH]c34)n2)c(OC)cc1N1CC2(CCCN2C)C1 = upper segment

Exam item: # bin lookup: classify C=CC(=O)Nc1cc(Nc2nccc(-c3cn(C)c4cccnc34)n2)c(OC)cc1N1CCC[C@H]1CN(C)C by its GI50
Marked response: upper segment

Exam item: Bin? C=CC(=O)Nc1cc(Nc2nccc(-c3cn(C)c4cccnc34)n2)c(OC(F)F)cc1N1CC2(CCCN2C)C1
Marked response: upper segment
